Origin of values: the supplement of paper PMC10567573

B1: NEK8 (parent)
chain: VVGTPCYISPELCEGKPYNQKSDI

Variants of: B1
Experiment: protein stability index of a GFP-peptide fusion (GPS, HEK-293T) (PSI 1-6); higher = more stable;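 also: lentivirally expressed fusions sorted by FACS into six bins by GFP to DsRed ratio, PSI derived from sequencing read proportions per bin multiplied by bin number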
Settings: c terminus: a fixed tail appended
Kindly supply the reported protein stability index values for the records listed here.
Numbers only.

Completed entries (count: 5):
I24C	2.91
K16Y	1.96
P10G	3.56
P5L	2.28
C6E	4.34

// for each variant below, give its protein stability index
1. G3W
2. L12F

Marked response:
1: 2.05; 2: 2.15
